# Test system: Caco-2 cells
# Conditions: Caco-2 transwell; top conc. 100 μM; unit inferred
Readout: Caco-2 TEER IC15 (µM)
Give just the numeric value; µM need not be written.

# input compound: C[C@@H](Oc1cc(-c2cnn(C3CCNCC3)c2)cnc1N)c1c(Cl)ccc(F)c1Cl ; wanted: its Caco-2 TEER IC15
8

# input compound: CN(C)C/C=C/C(=O)Nc1cc2c(Nc3ccc(F)c(Cl)c3)ncnc2cc1O[C@H]1CCOC1 ; wanted: its Caco-2 TEER IC15
9

# input compound: CC(C)C[C@H](NC(=O)[C@H](Cc1ccccc1)NC(=O)c1cnccn1)B(O)O ; wanted: its Caco-2 TEER IC15
1

# input compound: O=C(CCCN1CCC(O)(c2ccc(Cl)cc2)CC1)c1ccc(F)cc1 ; wanted: its Caco-2 TEER IC15
30

# input compound: CCOC(=O)C1=C(COCCN)NC(C)=C(C(=O)OC)C1c1ccccc1Cl (stereo not drawn) ; wanted: its Caco-2 TEER IC15
30

# input compound: CC(=O)[C@]1(O)Cc2c(O)c3c(c(O)c2[C@@H](O[C@H]2C[C@H](N)[C@H](O)[C@H](C)O2)C1)C(=O)c1ccccc1C3=O ; wanted: its Caco-2 TEER IC15
8

# input compound: CNC(=O)c1cc(Oc2ccc(NC(=O)Nc3ccc(Cl)c(C(F)(F)F)c3)cc2)ccn1 ; wanted: its Caco-2 TEER IC15
15

Origin of measurements: paper PMC6390652
